Where do these numbers come from? They come from PubChem BioAssay (NCI).

- procedureSummary: NCI Yeast Anticancer Drug Screen. Data for the mlh1 rad18 strain (AID 175)
- experimentalContext: S. cerevisiae mlh1 rad18 strain growth inhibition; at 50.0 µM
- Description: Growth inhibition of yeast strains with defined genetic alterations is measured as a screen for potential anti-cancer activity. Selected strains with alterations in DNA damage repair or cell cycle control were exposed to compounds and growth inhibition was measured relative to vehicle treated controls. The strain used in this assay is mlh1 rad18
About 79,000 compounds went through this panel and 15% of them were active in at least one assay; those are over-represented in the sample as a whole. The source made the active and inactive calls. No stated cut-off is given here; in the data, active means growth inhibition above about 70%; inactive means the rest.
Lab note: assign the record to one of Yes for active, No for inactive

Take a look at these entries with their results.
COc1cc(O)c2c(O)c3c(=O)cc(C)oc3cc2c1 : No
CC(C)(C(=O)c1ccccc1)N1CC1 : No
[NH-]C(CCC(N)=O)C(=O)O.[NH-]C(CCC(N)=O)C(=O)O.[Pd+2] (stereo unspecified) : No
CCC[CH2][Sn]([CH2]CCC)([CH2]CCC)[CH2]CCNCCCN(C)C : Yes
Cc1cc(C)c(CCN(C)C)c(C)c1C : No

Attention now turns to another entry.
// query Please indicate how the test categorized CCCCC(=O)c1cc(OC)cc(OC)c1 .
// result No

---

- procedureSummary: NCI Yeast Anticancer Drug Screen. Data for the rad50 strain (AID 155);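 further: 0% = growth of vehicle-only cultures of the same strain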
- experimentalContext: S. cerevisiae rad50 strain growth inhibition; at 50.0 µM
About 79,000 compounds went through this panel and 15% of them were active in at least one assay; those are over-represented in the sample as a whole. Activity calls are given as the source filed them. No stated cut-off is given here; in the data, active means growth inhibition above about 70%; inactive means the rest.
Answer with one of the outcomes given here: true (1) for active, false (0) for inactive

Recorded results for 2 compounds are shown here.
[CH3][Sn]([CH3])([n]1cnc(N)nc1=O)[n]1cnc(N)nc1=O : false (0)
CCCOP(=O)(CCl)OCCC : false (0)

// query Recorded call for O=C(c1ccccc1)N1CC1 ?
// result false (0)

// query Record lookup: outcome of this test for COc1ccc2nc3c4ccccc4scc-3c2c1 ?
// result true (1)

// query Called result for CC(Oc1ccc(-c2ccccc2)cc1)C(=O)O (stereo not given)
// result false (0)

---

- procedureSummary: NCI Yeast Anticancer Drug Screen. Data for the bub3 strain (AID 167)
- experimentalContext: S. cerevisiae bub3 mutant strain, at 50.0 µM, active compounds read high
Compounds without any hit were thinned out: in the full panel of roughly 79,000, 15% have a hit. Calls of active or inactive are those of the source. Cut-off read from the data, not from the text of the source: active = growth inhibition above about 70%; inactive = the rest.
# growth inhibition listing for each entry below

CC(C)N1C(=O)NC(=O)C2(CCCC2)C1=O : -12.6% (inactive)
CC(=O)c1ccccc1N=Nc1ccc(N(CCCl)CCCl)cc1C : 20.5% (inactive)
CC(C)(C)N1OC1c1cccc(Cl)c1 (configuration not stated) : -2.85% (inactive)

Now for another entry.
// query Output growth inhibition of CNC(=O)c1[nH]cnc1/N=N/N(C)N
// result 89% (active)

---

growth inhibition for assorted compounds
- procedureSummary: NCI Yeast Anticancer Drug Screen. Data for the mec2-1 strain (AID 157)
- experimentalContext: S. cerevisiae mec2-1 strain, at 50.0 µM, active compounds read high
This is part of a sample that, as a whole, favours compounds with a hit. Of some 79,000 tested, about 15% had one in any assay.
Write the value in % as a bare number.

O=C(Cc1ccc2c(c1)OCO2)c1cn(C(=O)Cc2ccc3c(c2)OCO3)c2ccccc12 : 5.9
CCCCCCCCCCOP(OCCCCCCCCCC)Oc1ccccc1 : -4.9
CS/C([S-])=N/N=C\c1ccccn1.CS/C([S-])=N/N=C\c1ccccn1.[Ni+2] : -6.75
COc1ccc(C(=O)OC2CC3CCC(C2)N3)cc1OC (stereo not given) : -19.8

// query For the compound Cc1nc2ccccc2c(=O)n1-c1ccccc1Cl , give its reported growth inhibition.
// result -4.65
